# Test system: HeLa cells
# measurementNotes: Intrinsic cytotoxicity, EZ4U colorimetric test, HeLa
# Assay type: cell-based, human
# testConditions: Figure 6
measureName: intrinsic cytotoxicity (in words)

>>> print(df.to_string())
                                   compound  measurementtarget                        measurename  observedmeasurement
0  CC(=O)c1c(O)c(C)c(O)c2c1OC1=CC(=O)/C(=C(/C)NCCC3=CC[C@H]4C[C@@H]3C4(C)C)C(=O)[C@@]12C [11c]         HeLa cells  intrinsic cytotoxicity (in words)        non-cytotoxic
1  CC(=O)c1c(O)c(C)c(O)c2c1OC1=CC(=O)/C(=C(/C)NCC[C@@H](C)CCC=C(C)C)C(=O)[C@@]12C [11a]         HeLa cells  intrinsic cytotoxicity (in words)        non-cytotoxic
